- tested.target: T1, human EphA10 (Homo sapiens, UniProt Q5JZY3)
- T1 construct: a protein of the extracellular region of each human Eph receptor fused with the SEAP protein and the His tag; made in house; host or cells: Expi293F cells (culture supernatant)
- T1 sequence (Q5JZY3 34-565 limits assumed): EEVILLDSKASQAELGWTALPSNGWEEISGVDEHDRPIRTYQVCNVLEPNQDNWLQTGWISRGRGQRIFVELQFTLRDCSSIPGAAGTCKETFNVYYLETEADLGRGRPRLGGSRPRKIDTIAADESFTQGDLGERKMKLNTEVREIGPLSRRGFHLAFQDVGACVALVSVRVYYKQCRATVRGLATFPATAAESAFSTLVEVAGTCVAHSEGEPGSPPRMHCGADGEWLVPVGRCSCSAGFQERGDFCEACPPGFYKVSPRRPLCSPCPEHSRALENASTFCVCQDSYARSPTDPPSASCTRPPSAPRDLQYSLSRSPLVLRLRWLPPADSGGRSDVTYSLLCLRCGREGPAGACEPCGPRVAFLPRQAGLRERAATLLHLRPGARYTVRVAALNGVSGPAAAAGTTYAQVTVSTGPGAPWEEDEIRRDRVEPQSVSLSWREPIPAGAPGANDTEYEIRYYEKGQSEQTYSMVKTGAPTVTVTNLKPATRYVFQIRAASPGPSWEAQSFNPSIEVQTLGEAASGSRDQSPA
- protocol: Selectivity ELISA of humanized antibodies for human Eph receptor
- Assay type: binding
- condition.parameters: coated protein 1 nM
recorded.metric: hEphA10-SEAP-: absorbance at 450 nm, percentage with respect to hEphA4-SEAP-His as 100% (%)

- molecule: "82 (antibody, V domains shown, constant regions without entry; synthetic humanized antibody light chain variable region sequence; synthetic humanized antibody heavy chain variable region sequence) VL: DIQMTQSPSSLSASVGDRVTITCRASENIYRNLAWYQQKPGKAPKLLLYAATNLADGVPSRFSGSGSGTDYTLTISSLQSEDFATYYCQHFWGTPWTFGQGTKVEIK VH: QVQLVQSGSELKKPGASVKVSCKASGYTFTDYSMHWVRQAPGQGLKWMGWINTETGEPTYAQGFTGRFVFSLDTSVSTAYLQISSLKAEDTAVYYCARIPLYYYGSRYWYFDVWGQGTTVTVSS"
  reported: 5.4
- molecule: "134 (antibody, V domains shown, synthetic humanized antibody heavy chain variable region sequence; synthetic humanized antibody light chain variable region sequence) VH: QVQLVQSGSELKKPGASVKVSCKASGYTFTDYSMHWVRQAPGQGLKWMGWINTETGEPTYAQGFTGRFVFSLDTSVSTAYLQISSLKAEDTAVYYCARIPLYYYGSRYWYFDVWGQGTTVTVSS VL: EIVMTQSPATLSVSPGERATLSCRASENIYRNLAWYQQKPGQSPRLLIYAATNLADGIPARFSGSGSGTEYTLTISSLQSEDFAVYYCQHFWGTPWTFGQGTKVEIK"
  reported: 5.0
- molecule: "86 (antibody, V domains shown, constant regions without entry; synthetic humanized antibody light chain variable region sequence; synthetic humanized antibody heavy chain variable region sequence) VL: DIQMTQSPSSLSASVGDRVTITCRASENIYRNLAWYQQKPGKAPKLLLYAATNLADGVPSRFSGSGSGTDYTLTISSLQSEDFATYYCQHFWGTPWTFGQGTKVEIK VH: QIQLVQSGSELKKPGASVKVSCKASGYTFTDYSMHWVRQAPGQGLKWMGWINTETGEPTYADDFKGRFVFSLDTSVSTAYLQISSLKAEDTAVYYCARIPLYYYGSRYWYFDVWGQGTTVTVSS"
  reported: 5.6
